Data provenance: PubChem BioAssay AID1159580

# test-method-notes: chemical genetic growth profiling, strain panel (AID 1159580);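 also: tested at 20 µM; growth read once vehicle control cultures reached saturation at 30 °C; lower values mean less growth of the strain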
# condition-info: S. cerevisiae deletion strains, growth OD, locus YPR141C, strain kar3
In all, about 5,500 compounds went through this assay and about 2,000 (36%) were called active. About 18% were inconclusive and are not listed. Rule as the data show it: active = normalized growth mostly below about 0.91 (no sharp cut-off); inconclusive = no clear call, values can overlap the other calls; inactive = mostly above about 0.92. This is one part of the list.
I would appreciate it if you answered using one of these outcomes: active, inactive

// below: answered molecules
{"molecule": "NCCCCN=C(N)N", "group": "inactive"}
{"molecule": "COc1cc(C(=O)O)c(O)c2c1OCO2", "group": "inactive"}
{"molecule": "COc1ccc(-c2cc(C(F)F)nn2-c2ccc(S(N)(=O)=O)cc2)cc1F", "group": "inactive"}
{"molecule": "CC[C@]12CCCN3CCc4c(n(c5ccccc45)[C@](O)(C(=O)OC)C1)[C@@H]32", "group": "inactive"}
{"molecule": "CC(C)C1=CC2=CCC3[C@](C)(CCC[C@]3(C)C(=O)O)C2CC1 (stereo not given in full)", "group": "inactive"}

Q: Answer briefly: the call reported for C[C@@H]1C[C@@H]([C@H](O)CC2CC(=O)NC(=O)C2)C(=O)[C@@H](C)C1 in this assay.
Ans: active

Q: // repeat for C#C[C@]1(O)CCC2C3CCc4cc(O)ccc4C3CC[C@@]21C (stereo not given in full) and report
Ans: inactive

Q: // repeat for CC(=O)OC/C=C(C)/C=C/C=C(C)/C=C/C1=C(C)CCCC1(C)C and report
Ans: inactive

Q: // repeat for OCC(S)CS (stereo not given) and report
Ans: inactive

Q: // repeat for COc1cc(/C=C/C(=O)O)cc(OC)c1OC and report
Ans: inactive

Q: // repeat for COc1cc(/C=C/C(=O)O)ccc1O and report
Ans: inactive

Q: // repeat for CCCSP(=O)(OCC)SCCC and report
Ans: inactive

Q: // repeat for CCOc1ccc2c(c1)C(C)=CC(C)(C)N2 and report
Ans: inactive

Q: // repeat for CC1=C(/C=C/C(C)=C/C=C/C(C)=C/C=C/C=C(C)/C=C/C=C(C)/C=C/C2=C(C)CCCC2(C)C)C(C)(C)CCC1 and report
Ans: inactive

Q: // repeat for CC1=C(/C=C/C(C)=C/C=C/C(C)=C/C(=O)O)C(C)(C)CCC1 and report
Ans: inactive
